Below, each entry is listed alongside its reported hEphA1-SEAP-: absorbance at 450 nm, percentage with respect to hEphA4-SEAP-His as 100%.
Target: T1, human EphA1 (Homo sapiens, UniProt P21709)
T1 construct: a protein of the extracellular region of each human Eph receptor fused with the SEAP protein and the His tag; made in house; host or cells: Expi293F cells (culture supernatant)
T1 sequence (P21709 26-547 limits assumed): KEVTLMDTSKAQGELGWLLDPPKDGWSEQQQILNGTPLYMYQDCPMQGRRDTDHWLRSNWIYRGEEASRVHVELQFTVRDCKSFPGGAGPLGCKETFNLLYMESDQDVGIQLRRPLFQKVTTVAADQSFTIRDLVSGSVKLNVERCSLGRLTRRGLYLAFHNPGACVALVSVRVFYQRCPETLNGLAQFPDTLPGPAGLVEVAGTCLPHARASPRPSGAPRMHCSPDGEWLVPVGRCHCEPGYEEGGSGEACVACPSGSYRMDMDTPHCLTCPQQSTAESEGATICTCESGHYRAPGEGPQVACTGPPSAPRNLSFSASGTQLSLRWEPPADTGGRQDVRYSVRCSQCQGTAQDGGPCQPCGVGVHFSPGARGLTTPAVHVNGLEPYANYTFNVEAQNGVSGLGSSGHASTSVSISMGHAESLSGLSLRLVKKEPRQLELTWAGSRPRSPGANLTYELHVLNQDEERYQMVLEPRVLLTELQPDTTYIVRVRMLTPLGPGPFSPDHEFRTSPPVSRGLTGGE
Test: Selectivity ELISA of humanized antibodies for human Eph receptor
Format: binding
Details: coated protein 1 nM
Reply numerically in %, unit not repeated.

- MOLECULE: "134 (antibody, V domains shown, synthetic humanized antibody heavy chain variable region sequence; synthetic humanized antibody light chain variable region sequence) VH: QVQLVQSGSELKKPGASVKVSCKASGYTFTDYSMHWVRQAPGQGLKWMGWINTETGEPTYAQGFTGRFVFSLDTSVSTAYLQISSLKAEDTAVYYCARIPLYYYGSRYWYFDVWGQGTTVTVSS VL: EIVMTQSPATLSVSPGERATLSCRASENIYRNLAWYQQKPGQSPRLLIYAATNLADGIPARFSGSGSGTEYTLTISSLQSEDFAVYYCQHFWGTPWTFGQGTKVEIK"
  MEASURED_VALUE: 5.1

# ---- query molecule ----
I'd like to know its hEphA1-SEAP-: absorbance at 450 nm, percentage with respect to hEphA4-SEAP-His as 100%. The molecule in question is 132 (antibody, V domains shown, synthetic humanized antibody heavy chain variable region sequence; synthetic humanized antibody light chain variable region sequence) VH: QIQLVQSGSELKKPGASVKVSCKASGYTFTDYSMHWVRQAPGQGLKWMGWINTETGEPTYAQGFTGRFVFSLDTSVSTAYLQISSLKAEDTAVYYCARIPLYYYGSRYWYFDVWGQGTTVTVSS VL: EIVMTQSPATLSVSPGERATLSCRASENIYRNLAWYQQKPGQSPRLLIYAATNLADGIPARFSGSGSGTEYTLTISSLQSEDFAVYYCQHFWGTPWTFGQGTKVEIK
4.8

Origin of the recorded values: patent US10428140B2
